Provenance of the data: patent US7118895B2

Test system: Crude diglycosidase
Assay: Examination of pH in the conversion into isoflavone aglycons by diglycosidase using soybean materials
Format: biochemical, Penicillium multicolor IAM7153
Conditions: pH5.1; heat treatment of enzyme: no; reaction time 6 h
Below is a list of entries, each paired with its recorded Decomposition efficiency of glycitin family in concentrated soybean protein value.
Readout Kind: Decomposition efficiency of glycitin family in concentrated soybean protein

# Chemical Structure, Reported Measurement
measured = [
    ("COc1cc2c(=O)c(-c3ccc(O)cc3)coc2cc1O[C@@H]1O[C@H](COC(=O)CC(=O)O)[C@@H](O)[C@H](O)[C@H]1O", "0.6%"),
    ("COc1cc2c(=O)c(-c3ccc(O)cc3)coc2cc1O", "78.5%"),
    ("COc1cc2c(=O)c(-c3ccc(O)cc3)coc2cc1O[C@@H]1O[C@H](COC(C)=O)[C@@H](O)[C@H](O)[C@H]1O", "21.0%"),
]
